Target: Mannose-6-phosphate isomerase (Homo sapiens, UniProt P34949)
Sequence (P34949 whole entry): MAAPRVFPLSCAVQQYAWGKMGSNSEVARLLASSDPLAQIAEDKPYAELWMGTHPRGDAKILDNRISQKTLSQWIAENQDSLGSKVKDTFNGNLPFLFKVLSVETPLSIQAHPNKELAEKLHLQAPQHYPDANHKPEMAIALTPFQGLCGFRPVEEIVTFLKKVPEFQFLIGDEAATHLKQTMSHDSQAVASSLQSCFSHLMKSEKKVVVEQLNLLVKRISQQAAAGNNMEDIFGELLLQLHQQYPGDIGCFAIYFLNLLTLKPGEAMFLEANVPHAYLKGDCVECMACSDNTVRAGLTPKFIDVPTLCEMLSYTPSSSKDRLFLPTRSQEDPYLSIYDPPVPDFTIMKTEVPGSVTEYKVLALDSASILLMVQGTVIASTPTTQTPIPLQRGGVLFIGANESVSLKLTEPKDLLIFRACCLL
Assay: human PMI inhibitors, high substrate, primary screen, biochemical, fluorescence intensity, high mannose 6-phosphate (AID 1220)
Active and inactive are the calls of the source.
Property: IC50; scope: individual molecules

{"Cpd Smiles": "Cc1nnc(N/N=C\\c2ccc(-c3ccccc3[N+](=O)[O-])o2)n1N", "Target": "Mannose-6-phosphate isomerase (Homo sapiens, UniProt P34949)", "IC50": "> 50 µM (not active)"}
{"Cpd Smiles": "CCOC(=O)c1ccc(CC(=O)c2ccc(O)c(O)c2O)o1", "Target": "Mannose-6-phosphate isomerase (Homo sapiens, UniProt P34949)", "IC50": "19.4 µM (active)"}
{"Cpd Smiles": "O=[N+]([O-])c1cc(-c2ncccn2)c([N+](=O)[O-])s1", "Target": "Mannose-6-phosphate isomerase (Homo sapiens, UniProt P34949)", "IC50": "7.48 µM (active)"}

---

Assay: inhibitors of intracellular T. cruzi replication, confirmation, NIH3T3 host cells, beta-gal luminescence (AID 2044);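 also: intracellular parasites grown in NIH/3T3 mouse fibroblasts as host cells; luminescent beta-galactosidase reporter signal from transgenic T. cruzi replicating inside host cells; inhibitors lower the luminescence signal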
Assay type: functional, cell-based
The source made the active and inactive calls.
Listing of recorded EC50 by entry.

{"Cpd Smiles": "COCc1cc(O)nc(Nc2nc3ccc(C)cc3o2)n1", "EC50": "1.87 µM (active)"}
{"Cpd Smiles": "Cc1cc(NC2CCCC2)n2nc(C)c(-c3ccccc3)c2n1", "EC50": "3.4 µM (active)"}
{"Cpd Smiles": "CN1CCN(c2ccc(S(=O)(=O)N3CCCCC3)cc2[N+](=O)[O-])CC1", "EC50": "0.81 µM (active)"}

---

Target: UniProt:P10520
Sequence (P10520 whole entry): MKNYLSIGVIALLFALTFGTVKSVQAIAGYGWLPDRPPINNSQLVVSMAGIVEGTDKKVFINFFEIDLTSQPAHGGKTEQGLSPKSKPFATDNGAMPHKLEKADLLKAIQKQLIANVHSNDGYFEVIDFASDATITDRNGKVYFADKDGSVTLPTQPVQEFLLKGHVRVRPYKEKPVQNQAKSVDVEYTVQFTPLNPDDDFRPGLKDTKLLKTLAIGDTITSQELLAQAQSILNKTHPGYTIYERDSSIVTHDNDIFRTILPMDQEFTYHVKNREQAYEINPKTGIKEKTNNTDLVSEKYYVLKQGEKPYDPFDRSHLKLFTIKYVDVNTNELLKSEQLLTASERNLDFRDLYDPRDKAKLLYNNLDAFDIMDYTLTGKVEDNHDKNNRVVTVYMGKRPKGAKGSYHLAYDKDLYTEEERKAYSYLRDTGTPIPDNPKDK
Experiment: S. pyogenes streptokinase expression inhibitors, potency, dose response, plasminogen activation absorbance, OD405 (AID 1914);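 also: secreted streptokinase activity via plasminogen activation per viability signal from cell pellet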
Format: functional, Streptococcus pyogenes M1 GAS
The source made the active and inactive calls.
Measured EC50 of individual entries

{"Compound": "N#Cc1c(-c2ccccc2)nc(SCc2cccc(C(F)(F)F)c2)[nH]c1=O", "EC50": "6.34 µM (active)"}
{"Compound": "Brc1ccc(C2C3=C(Nc4ncnn42)c2ccccc2OC3c2ccncc2)cc1 (configuration not stated)", "EC50": "> 150 µM (not active)"}
{"Compound": "Cc1cc(C)c(NC(=O)c2oc3ccccc3c2COc2ccccc2)c(C)c1", "EC50": "6.21 µM (active)"}
{"Compound": "O=C(N/N=C\\C=C\\c1ccc([N+](=O)[O-])o1)c1cccs1", "EC50": "> 150 µM (not active)"}
{"Compound": "CC(C)Oc1ccc(C(=O)Nc2nc3ccccc3[nH]2)cc1", "EC50": "> 150 µM (not active)"}
{"Compound": "CCOC(=O)c1c(-c2ccc(OC)cc2)csc1NC=C1C(=O)CCCC1=O", "EC50": "> 150 µM (not active)"}
{"Compound": "Oc1ccccc1C1CCCCC1c1ccccc1 (configuration not stated)", "EC50": "12.7 µM (active)"}
